Listed binders paired with reported relative binding affinity
System Under Test: T1, human CD81 mutant L165A (human, UniProt P60033 1-236, limits assumed)
T1 construct: as m30; not shown: C-terminal V5 and 6xHis tags
T1 sequence: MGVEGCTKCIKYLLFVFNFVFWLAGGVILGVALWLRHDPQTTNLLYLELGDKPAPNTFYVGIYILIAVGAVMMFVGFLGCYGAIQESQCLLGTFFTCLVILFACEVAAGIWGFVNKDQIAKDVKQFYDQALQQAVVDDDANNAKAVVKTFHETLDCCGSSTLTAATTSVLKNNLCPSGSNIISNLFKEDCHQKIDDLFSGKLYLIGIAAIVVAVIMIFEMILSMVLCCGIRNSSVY
Measurement Notes: ELISA

Reference set, count: 2
[Q] Any idea what its relative binding affinity is? The binder is 002-A07 N113S (antibody, human IgG4 S228P, lambda, V domains shown, IgG4 S228P; glycosylation site mutant of 002-A07 VL) VH: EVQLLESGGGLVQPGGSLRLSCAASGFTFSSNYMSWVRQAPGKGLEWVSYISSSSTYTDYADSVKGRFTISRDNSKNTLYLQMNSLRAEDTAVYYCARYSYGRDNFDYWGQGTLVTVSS VL: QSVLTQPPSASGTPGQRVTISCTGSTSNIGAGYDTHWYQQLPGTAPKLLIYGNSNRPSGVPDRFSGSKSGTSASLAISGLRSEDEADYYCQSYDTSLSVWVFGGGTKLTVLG
[A] < 20%

[Q] Any idea what its relative binding affinity is? The binder is 002-F07 (antibody, human IgG4 S228P, lambda, V domains shown, IgG4 S228P) VH: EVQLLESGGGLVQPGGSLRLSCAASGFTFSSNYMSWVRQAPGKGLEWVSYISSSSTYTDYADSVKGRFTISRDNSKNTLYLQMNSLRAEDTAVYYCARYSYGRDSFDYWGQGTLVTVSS VL: QSVLTQPFSASGTPGQRVTISCTGSTSNIGAGFDTHWYQQLPGTAPKLLIYGNSNRPSGVPDRFSGSKSGTTASLAISGLRSEDEADYYCQSYDTNLSVWVFGGGTKLTVLG
[A] < 20%

Switching to the query record.
[Q] Any idea what its relative binding affinity is? The binder is 002-A07 N113Q (antibody, human IgG4 S228P, lambda, V domains shown, IgG4 S228P; glycosylation site mutant of 002-A07 VL) VH: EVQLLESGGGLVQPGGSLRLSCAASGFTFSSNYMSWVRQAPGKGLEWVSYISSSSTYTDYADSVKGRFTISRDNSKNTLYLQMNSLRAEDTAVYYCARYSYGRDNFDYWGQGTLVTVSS VL: QSVLTQPPSASGTPGQRVTISCTGSTSNIGAGYDTHWYQQLPGTAPKLLIYGNSNRPSGVPDRFSGSKSGTSASLAISGLRSEDEADYYCQSYDTQLSVWVFGGGTKLTVLG
[A] < 20%
